Reference for the values: PubChem BioAssay AID248

Some molecules, each annotated with its measured T/C.
system: L1210 leukemia ip in BDF1 mice, survival T/C; assay: NCI In Vivo Anticancer Drug Screen. Data for tumor model L1210 Leukemia (intraperitoneal) in B6D2F1 (BDF1) mice; settings: endpoint: mean survival time; dose: 400.0 mg/kg/injection; schedule: Q04DX003 (ip); vehicle: saline; higher = longer survival
Inconclusive results and toxic doses are left out. Square brackets hold non-standard residues; d marks the D form. Peptide text beside a SMILES is read from it. ξ: configuration not given here. ξI = CCC(C)C(N)C(=O)O

# molecule, T/C
rows = [
    ("CSc1ccc(NC(=O)Nc2c(C)n(C)n(-c3ccccc3)c2=O)cc1", "87 % of control"),
    ("Cc1ccc([N+](=O)[O-])cc1/C=C/C(=O)O", "104 % of control"),
    ("CC1(CO)CCCC2(C)c3cc(O)ccc3CCC12 (stereo not drawn)", "97 % of control"),
    ("O=C1c2ccccc2C(=O)N1OCCCCCCON1C(=O)c2ccccc2C1=O", "97 % of control"),
    ("NC(=O)NCCNC(N)=O", "103 % of control"),
    ("COc1ccc(C=Nc2ccc(O)cc2)cc1", "101 % of control"),
    ("COC(=O)C(=O)NCc1cnccn1", "100 % of control"),
    ("CCC(C)C(NC(=O)CN)C(=O)O (stereo not drawn) (H-Gly-[ξI]-OH)", "91 % of control"),
    ("Cc1cccc2c(Nc3ccc(NS(C)(=O)=O)cc3)c3ccccc3nc12", "94 % of control"),
    ("COc1ccccc1NC(=O)Oc1ccc(Br)cc1Br", "101 % of control"),
    ("CCN(CC)C(=O)C1C2CC3OC(=O)C1C3C2 (stereo not drawn)", "104 % of control"),
    ("CCCc1cn(C2OC(=O)c3ccccc32)c2ccccc12 (stereo not drawn)", "101 % of control"),
    ("Cc1c(O)c2cccc(-c3ccccc3)c2oc1=O", "109 % of control"),
]
